Sourced from the supplement of paper PMC7877785

measurement.description: self-splicing fitness, log relative to wild type (ln ratio); higher = more splicing; Tetrahymena group I intron in knt gene, E. coli kanamycin selection, DiMSum; sequences stand for … in CUCUCU…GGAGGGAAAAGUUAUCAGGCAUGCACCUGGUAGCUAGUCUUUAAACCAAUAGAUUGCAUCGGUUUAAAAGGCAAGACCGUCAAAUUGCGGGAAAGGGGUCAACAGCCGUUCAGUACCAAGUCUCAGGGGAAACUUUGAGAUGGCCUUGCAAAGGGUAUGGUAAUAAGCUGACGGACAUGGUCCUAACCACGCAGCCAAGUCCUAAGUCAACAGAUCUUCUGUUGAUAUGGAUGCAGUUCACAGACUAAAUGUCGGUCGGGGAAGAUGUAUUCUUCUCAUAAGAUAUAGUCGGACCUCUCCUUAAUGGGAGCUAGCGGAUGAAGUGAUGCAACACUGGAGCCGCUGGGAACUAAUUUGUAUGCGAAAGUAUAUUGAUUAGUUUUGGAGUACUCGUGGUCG;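 further: selection with 25 µg/mL kanamycin versus none on LB agar overnight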
stated.conditions: 37 °C
Reported self-splicing fitness (ln) values follow for various sequences
Just the number, please, no unit after it.

Below are worked cases with known answers.
>>> print(df.to_string())
         sequence_entry                  value_type  number
0  GUUGAGCAAUAUUACGUUAG  self-splicing fitness (ln)   -2.82
1  UAAAAGCAAUAUUACGAUGA  self-splicing fitness (ln)  0.0881
2  CAUAAGCAAUAUUACGCCUA  self-splicing fitness (ln)  -0.984
3  AGCCAGCAAUAUUACGUCGU  self-splicing fitness (ln)   -1.58
4  GAAAAGCAAUAUUACGAUCU  self-splicing fitness (ln)  -0.478
5  CUAGAGCAAUAUUACGUCUC  self-splicing fitness (ln)   -2.76
6  GACAAGCAAUAUUACGACAA  self-splicing fitness (ln)  -0.951
7  AUUGAGCAAUAUUACGACGC  self-splicing fitness (ln)   -2.35
8  CUGGAGCAAUAUUACGCAAU  self-splicing fitness (ln)   -2.08
9  ACCGAGCAAUAUUACGUGUU  self-splicing fitness (ln)   -2.65

## Task For the sequence `AGUAAGCAAUAUUACGCUUA` , what self-splicing fitness (ln) is on record?
## Result -1.44

## Task For the sequence `GACGAGCAAUAUUACGGGGG` , what self-splicing fitness (ln) is on record?
## Result -2.98

## Task For the sequence `GCUCAGCAAUAUUACGAGUA` , what self-splicing fitness (ln) is on record?
## Result -0.433

## Task For the sequence `ACAAAGCAAUAUUACGCGAA` , what self-splicing fitness (ln) is on record?
## Result -1.13

## Task For the sequence `GGGGAGCAAUAUUACGAUUG` , what self-splicing fitness (ln) is on record?
## Result -1.67

## Task For the sequence `GCCGAGCAAUAUUACGCCCU` , what self-splicing fitness (ln) is on record?
## Result -0.0518

###

measurement.description: self-splicing fitness, log relative to wild type (ln ratio); higher = more splicing; Tetrahymena group I intron in knt gene, E. coli kanamycin selection, DiMSum; sequences stand for … in CUCUCU…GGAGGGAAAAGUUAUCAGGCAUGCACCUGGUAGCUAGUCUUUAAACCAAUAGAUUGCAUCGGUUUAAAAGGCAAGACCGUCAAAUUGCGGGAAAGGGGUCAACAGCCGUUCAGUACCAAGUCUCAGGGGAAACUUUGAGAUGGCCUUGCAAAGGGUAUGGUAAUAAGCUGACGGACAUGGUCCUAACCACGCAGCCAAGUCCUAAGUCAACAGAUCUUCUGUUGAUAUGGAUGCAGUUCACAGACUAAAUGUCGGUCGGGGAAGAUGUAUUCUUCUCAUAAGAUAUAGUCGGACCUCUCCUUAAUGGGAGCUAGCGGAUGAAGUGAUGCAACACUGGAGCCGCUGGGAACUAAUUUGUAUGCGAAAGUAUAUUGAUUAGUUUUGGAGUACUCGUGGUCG
stated.conditions: 37 °C
value.type: self-splicing fitness (ln)

Below are worked cases with known answers.
>>> print(df.to_string())
         sequence_entry                  value_type   result
0  AUGAAGCAAUAUUACGUACC  self-splicing fitness (ln)     0.16
1  AAGCAGCAAUAUUACGGAUC  self-splicing fitness (ln)       -1
2  UGACAGCAAUAUUACGUAAG  self-splicing fitness (ln)   -0.489
3  AAAUAGCAAUAUUACGAUGA  self-splicing fitness (ln)  -0.0131
4  AUGUAGCAAUAUUACGAGCU  self-splicing fitness (ln)   -0.987
5  UUUGAGCAAUAUUACGGAUU  self-splicing fitness (ln)    -2.31
6  UCGAAGCAAUAUUACGUGUC  self-splicing fitness (ln)    -2.37
7  GGCCAGCAAUAUUACGAUCG  self-splicing fitness (ln)    -1.27
8  GUGAAGCAAUAUUACGGUCU  self-splicing fitness (ln)    0.824
9  CAGCAGCAAUAUUACGGCGC  self-splicing fitness (ln)    -1.51

## Task For the sequence `GGGGAGCAAUAUUACGGUCU` , what self-splicing fitness (ln) is on record?
## Result -0.856

## Task For the sequence `AUUCAGCAAUAUUACGAUUC` , what self-splicing fitness (ln) is on record?
## Result -0.407

## Task For the sequence `GUAUAGCAAUAUUACGUUUU` , what self-splicing fitness (ln) is on record?
## Result -2.37

## Task For the sequence `ACUAAGCAAUAUUACGUUGG` , what self-splicing fitness (ln) is on record?
## Result -1.73

## Task For the sequence `CGUUAGCAAUAUUACGUAAU` , what self-splicing fitness (ln) is on record?
## Result -1.63

## Task For the sequence `UAUGAGCAAUAUUACGACCG` , what self-splicing fitness (ln) is on record?
## Result -1.53

## Task For the sequence `CACAAGCAAUAUUACGCGGA` , what self-splicing fitness (ln) is on record?
## Result -1.08
